System: MOLT-4
measurement.notes: NCI tumour cell line growth inhibition, 48 h
Calls of active or inactive are those of the source. No stated cut-off is given here; in the data, active = GI50 up to about 1.1 µM and inactive = higher. Numbered stars: 1 amine (or outer) side, 2 acyl side, 3 side chain; on linkers, the order of the positions; unused ones are H or OH. Bridge positions count the residues as written; N and C are the ends. Square brackets hold non-standard residues; d marks the D form. Peptide text beside a SMILES is read from it. I, II: the chains in the order shown. Actinocin(9to1) = Cc1c2oc3c(C)ccc(C(=O)[*:1])c3nc-2c(C(=O)[*:2])c(N)c1=O; NMeH = CN[CH](Cc1c[nH]cn1)C(=O)O; Sar = CNCC(=O)O
Response enum: active, inactive

Would you please look over these solved cases?
compound | assigned.class
COc1cc(C2=C(c3cc(OC)c4ccccc4c3OC)C(=O)c3ccccc3C2=O)c(OC)c2ccccc12 | inactive
COc1c(C)n(CCO)ccc1=O | inactive
c1cnc2c(c1)-n1cccc1C1(CCSCC1)NN2 | inactive
COc1cc(Nc2c3ccccc3nc3ccccc23)ccc1NS(C)(=O)=O | inactive
O=S1(=O)CS(=O)(=O)OCCCO1 | inactive
O=C(O)c1nc2ccc(C(F)(F)F)cc2nc1NCc1ccc(F)cc1 | inactive
C=CCCON(C(=O)OC(C)(C)C)C(C)(C)C | inactive
O=c1cc(-c2ccccc2)[nH]c2cc(Cl)cc(Cl)c12 | inactive

-- ask Field: outcome | Entry: COC(=O)C1CCc2nnc(-c3cccnc3)n21 (stereo not drawn)
-- reply inactive

-- ask Field: outcome | Entry: Cc1c2oc3c(C)ccc(C(=O)NC4C(=O)NC(C(C)C)C(=O)N5CCCC5C(=O)N(C)CC(=O)N(C)C(Cc5cnc[nH]5)C(=O)OC4C)c3nc-2c(C(=O)NC2C(=O)NC(C(C)C)C(=O)N3CCCC3C(=O)N(C)CC(=O)N(C)C(Cc3cnc[nH]3)C(=O)OC2C)c(N)c1=O (stereo not drawn) (I: TVP[Sar][NMeH] / II: TVP[Sar][NMeH]; ester I:1-I:C, II:1-II:C; linker I:N-II:N via Actinocin(9to1); configuration not given here)
-- reply inactive

-- ask Field: outcome | Entry: CNc1nc(SC)nc2c1c(N)nn2C
-- reply inactive

-- ask Field: outcome | Entry: COC(=O)C(Br)C1CCc2ccccc21 (stereo not drawn)
-- reply inactive
